Biological target: T1, ecdTDR Y234 alanine mutant (Arabidopsis thaliana, UniProt Q9FII5 30-642, alanine substitution of Y234)
T1 sequence: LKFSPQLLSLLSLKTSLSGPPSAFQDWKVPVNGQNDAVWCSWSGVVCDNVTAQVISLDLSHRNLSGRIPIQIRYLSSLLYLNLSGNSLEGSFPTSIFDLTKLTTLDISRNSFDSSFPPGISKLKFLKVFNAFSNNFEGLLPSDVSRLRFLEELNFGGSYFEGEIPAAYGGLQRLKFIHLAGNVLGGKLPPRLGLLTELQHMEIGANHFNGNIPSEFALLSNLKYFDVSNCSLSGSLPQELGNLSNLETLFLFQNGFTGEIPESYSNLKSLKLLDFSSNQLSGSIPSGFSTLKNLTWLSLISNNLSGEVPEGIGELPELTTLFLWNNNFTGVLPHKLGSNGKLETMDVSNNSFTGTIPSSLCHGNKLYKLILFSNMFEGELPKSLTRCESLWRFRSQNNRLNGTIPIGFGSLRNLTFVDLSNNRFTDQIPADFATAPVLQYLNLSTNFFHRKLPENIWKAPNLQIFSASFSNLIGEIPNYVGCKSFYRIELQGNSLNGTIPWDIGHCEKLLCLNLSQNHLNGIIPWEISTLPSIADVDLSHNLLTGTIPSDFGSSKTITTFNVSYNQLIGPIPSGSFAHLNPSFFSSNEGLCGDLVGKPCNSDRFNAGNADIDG
Test: ITC
Square brackets hold non-standard residues; d marks the D form. Ends that are not written are not given here. Hyp = O=C(O)[C@@H]1C[C@@H](O)CN1
Measured Metric: Kd (nM)
Enter your answer as a number in nM; do not include the unit.

Just so you know, measured Kd for HEV[Hyp]SG[Hyp]NPISN (TDIF, the 12-residue CLE peptide processed from CLE41 and CLE44 of A. thaliana; printed as HEV(Hyp)SG(Hyp)NPISN; numbers count on: the 12-residue peptide; CLE44 encodes the same peptide; also called wild type TDIF; wtTDIF; source: synthetic peptide (peptide 2.0)) [Tracheary Element Differentiation Inhibitory Factor (TDIF) peptide] came out at 1650
